// data source = patent US12414952B2

# target_of_assay: human A2a adenosine receptor (Homo sapiens (Human))
# Sequence (P29274 whole entry): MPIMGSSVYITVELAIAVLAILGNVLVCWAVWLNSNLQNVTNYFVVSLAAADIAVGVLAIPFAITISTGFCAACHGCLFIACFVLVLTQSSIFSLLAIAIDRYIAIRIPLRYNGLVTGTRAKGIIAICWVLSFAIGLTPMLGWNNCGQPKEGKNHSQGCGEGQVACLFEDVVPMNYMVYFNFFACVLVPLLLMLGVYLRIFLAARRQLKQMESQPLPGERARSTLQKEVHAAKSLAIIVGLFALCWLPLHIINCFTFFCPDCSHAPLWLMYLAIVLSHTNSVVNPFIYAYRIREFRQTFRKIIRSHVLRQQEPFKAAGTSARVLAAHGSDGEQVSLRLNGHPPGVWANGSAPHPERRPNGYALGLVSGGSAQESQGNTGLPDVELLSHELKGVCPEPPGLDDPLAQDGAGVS
# experiment_description: A2a binding affinity using radioligand binding, Method (A)
# condition: Method (A): [3H]SCH58261 filtration binding
# Source text: The A2a receptor affinity binding assay measured the amount of binding of a tritiated ligand with high affinity for the A2a adenosine receptor to membranes made from HEK293 or CHO cells recombinantly expressing the human A2a adenosine receptor, in the presence of varying concentrations of a compound of the invention. The data were generated using either filtration binding or a homogenous scintillation proximity assay (SPA). Method (A): Measurement of A2a Binding Affinity Using Radioligand Binding […]
readout_label: pIC50
In textbook form, pIC50 equals minus log to base ten of the concentration in mol/L.

Cc1c(-c2ncco2)nc(N)n2nc(CCN3CCc4c(nnn4C4CC(F)(F)C4)C3)nc12 [Example 17.14] | 9.30
Cc1nc2c(N)nc(-c3ccc(F)cc3)cn2n1 [Example 2.6] | 6.28

Item Nc1nc(-c2ncco2)cc2nc(CCN3CCc4[nH]ncc4C3)nn12 [Example 17.21] has what recorded pIC50?
6.35

Item COc1cccc(-c2nc(N)c3nc(Cc4ccccc4)nn3c2C)c1F [Example 3.11] has what recorded pIC50?
7.55

Item Cc1c(-c2cccc(F)c2)nc(N)n2nc(CCS(=O)(=O)C3CC3)nc12 [Example 16.2] has what recorded pIC50?
7.71
